- target: T1, full-length human Tau (Tau441; 2N4R), recombinant (human, UniProt P10636 1-758)
- T1 construct: made in E. coli, His6-Smt3 tag removed; biotinylated through amines for Octet and phage work; also called r-Tau; recombinant Tau
- T1 sequence (P10636 other isoform, or with tags, fused parts or gaps limits assumed): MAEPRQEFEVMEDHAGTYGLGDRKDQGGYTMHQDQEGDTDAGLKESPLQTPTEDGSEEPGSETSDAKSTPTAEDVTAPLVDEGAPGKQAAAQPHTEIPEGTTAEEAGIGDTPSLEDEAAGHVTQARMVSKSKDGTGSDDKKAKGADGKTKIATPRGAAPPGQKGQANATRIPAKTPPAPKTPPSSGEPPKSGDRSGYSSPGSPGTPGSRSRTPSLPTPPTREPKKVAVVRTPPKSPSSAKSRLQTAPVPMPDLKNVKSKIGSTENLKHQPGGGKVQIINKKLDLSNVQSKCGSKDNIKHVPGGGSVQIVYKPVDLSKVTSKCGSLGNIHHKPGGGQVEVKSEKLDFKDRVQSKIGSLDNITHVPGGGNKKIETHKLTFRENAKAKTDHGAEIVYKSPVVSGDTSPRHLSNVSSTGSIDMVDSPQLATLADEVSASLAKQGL
- testMethodNotes: SPR Biacore
Outcome label depends on kon relative to 400000 M⁻¹ s⁻¹: at/above gives yes (1), below gives no (0).

See these solved cases before continuing.
binder	discreteLabel
Clone with H1_2-2 (antibody, V domains shown, based on hu1C7.v2) VH: EVQLLESGGGLVQPGGSLRLSCAASGFTFSMVGTSWVRQAPGKGLEWVASISGDGGSYIHYADSVKGRFTISRDNSKNTLYLQMNSLRAEDTAVYYCARLPYWGQGTLVTVSS VL: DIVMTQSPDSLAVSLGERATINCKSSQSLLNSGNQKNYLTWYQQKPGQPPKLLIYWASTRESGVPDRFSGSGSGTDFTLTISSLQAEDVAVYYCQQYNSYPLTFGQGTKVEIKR	no (0)
Clone with L1_3-6 (antibody, V domains shown, based on hu1C7.v2) VH: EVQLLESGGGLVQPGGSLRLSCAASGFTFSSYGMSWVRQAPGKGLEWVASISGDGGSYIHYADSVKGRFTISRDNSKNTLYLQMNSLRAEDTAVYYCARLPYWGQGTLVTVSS VL: DIVMTQSPDSLAVSLGERATINCKSSQSLHQSGTQKDYLVWYQQKPGQPPKLLIYWASTRESGVPDRFSGSGSGTDFTLTISSLQAEDVAVYYCQQYNSYPLTFGQGTKVEIK	yes (1)
Clone with H2_1 (antibody, V domains shown, based on hu1C7.v2) VH: EVQLLESGGGLVQPGGSLRLSCAASGFTFSSYGMSWVRQAPGKGLEWVASISGEGGSYIHYADSVKGRFTISRDNSKNTLYLQMNSLRAEDTAVYYCARLPYWGQGTLVTVSS VL: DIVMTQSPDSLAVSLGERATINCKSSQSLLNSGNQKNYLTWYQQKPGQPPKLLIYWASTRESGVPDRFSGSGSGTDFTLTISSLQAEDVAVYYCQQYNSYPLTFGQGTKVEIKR	yes (1)
Clone with L1_3-8 (antibody, V domains shown, based on hu1C7.v2) VH: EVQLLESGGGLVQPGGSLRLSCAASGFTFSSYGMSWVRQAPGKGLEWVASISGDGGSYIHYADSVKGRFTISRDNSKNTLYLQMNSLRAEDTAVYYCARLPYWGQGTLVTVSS VL: DIVMTQSPDSLAVSLGERATINCKSSQSLHLSGTQKDYLVWYQQKPGQPPKLLIYWASTRESGVPDRFSGSGSGTDFTLTISSLQAEDVAVYYCQQYNSYPLTFGQGTKVEIK	yes (1)

Now examine the next entry.
Please tell me: is the binder Clone with L1_3-9 (antibody, V domains shown, based on hu1C7.v2) VH: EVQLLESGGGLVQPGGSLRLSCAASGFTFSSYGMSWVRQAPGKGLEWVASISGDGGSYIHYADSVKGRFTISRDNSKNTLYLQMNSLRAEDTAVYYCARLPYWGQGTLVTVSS VL: DIVMTQSPDSLAVSLGERATINCKSSQSLHRSGNQKDYLVWYQQKPGQPPKLLIYWASTRESGVPDRFSGSGSGTDFTLTISSLQAEDVAVYYCQQYNSYPLTFGQGTKVEIK at or over 400000 M⁻¹ s⁻¹ in terms of kon?
yes (1)
